Reported Fold of Change KO/WT values follow for various molecules
# targetOrSystem: Oatp1b2 (Mus musculus, UniProt Q9JJL3)
# Sequence (Q9JJL3 1-689): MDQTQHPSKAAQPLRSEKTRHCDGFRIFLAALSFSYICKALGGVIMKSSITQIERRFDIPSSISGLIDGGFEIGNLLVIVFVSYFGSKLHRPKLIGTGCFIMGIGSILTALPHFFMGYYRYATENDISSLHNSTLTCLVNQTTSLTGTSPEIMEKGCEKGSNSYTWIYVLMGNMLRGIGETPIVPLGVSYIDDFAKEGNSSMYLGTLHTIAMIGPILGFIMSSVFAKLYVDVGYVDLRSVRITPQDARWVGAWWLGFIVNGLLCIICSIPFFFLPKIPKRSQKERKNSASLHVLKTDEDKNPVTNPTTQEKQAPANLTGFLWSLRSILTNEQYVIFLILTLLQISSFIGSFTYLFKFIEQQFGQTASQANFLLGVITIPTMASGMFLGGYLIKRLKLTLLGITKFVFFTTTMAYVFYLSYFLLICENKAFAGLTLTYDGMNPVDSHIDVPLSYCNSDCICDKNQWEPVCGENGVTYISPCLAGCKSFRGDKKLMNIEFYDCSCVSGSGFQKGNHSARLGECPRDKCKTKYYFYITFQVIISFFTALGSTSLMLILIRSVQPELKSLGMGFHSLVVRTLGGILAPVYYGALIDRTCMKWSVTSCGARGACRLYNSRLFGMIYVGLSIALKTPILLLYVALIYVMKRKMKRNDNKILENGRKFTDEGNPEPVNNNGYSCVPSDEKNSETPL
# experimentNotes: Untargeted metabolomics of plasma from untreated wild-type and Oatp1b2(−/−) mice
# testParameters: plasma of untreated Oatp1b2-deficient (KO) vs wild-type (WT) mice; semi-quantitative; positive = higher in KO; n = 6 per group
Counter-ions that a name gives are not always drawn.

{"molecule": "CC(C(=O)O)c1ccc(O)cc1 (stereo not shown) [2-(4-hydroxyphenyl)propionate]", "targetOrSystem": "Oatp1b2 (Mus musculus, UniProt Q9JJL3)", "Fold of Change KO/WT": 1.30}
{"molecule": "CC(=O)N[C@@H](CC(=O)c1ccccc1N)C(=O)O", "targetOrSystem": "Oatp1b2 (Mus musculus, UniProt Q9JJL3)", "Fold of Change KO/WT": 1.41}
{"molecule": "CC(C)CC(O)C(=O)O (stereo not drawn) [alpha-hydroxyisocaproate]", "targetOrSystem": "Oatp1b2 (Mus musculus, UniProt Q9JJL3)", "Fold of Change KO/WT": 2.29}
{"molecule": "CCCCCCCC/C=C\\CCCCCCCC(=O)O[C@H](COC(=O)CCCCCCCCCCCCCCCCC)COP(=O)([O-])OCC[N+](C)(C)C", "targetOrSystem": "Oatp1b2 (Mus musculus, UniProt Q9JJL3)", "Fold of Change KO/WT": 1.20}
{"molecule": "C[C@H](CCC(=O)NCCS(=O)(=O)O)[C@H]1CC[C@H]2[C@@H]3CC[C@@H]4C[C@H](OS(=O)(=O)O)CC[C@]4(C)[C@H]3C[C@H](O)[C@]12C [taurodeoxycholic acid 3-sulfate]", "targetOrSystem": "Oatp1b2 (Mus musculus, UniProt Q9JJL3)", "Fold of Change KO/WT": 1.58}
{"molecule": "CC(=O)Nc1ccc(C(=O)O)cc1 [4-acetamidobenzoate]", "targetOrSystem": "Oatp1b2 (Mus musculus, UniProt Q9JJL3)", "Fold of Change KO/WT": 2.14}
{"molecule": "Cc1ccc(OS(=O)(=O)O)c(N)c1 [2-amino-p-cresol sulfate]", "targetOrSystem": "Oatp1b2 (Mus musculus, UniProt Q9JJL3)", "Fold of Change KO/WT": 4.28}
{"molecule": "CC(C)CCC[C@@H](C)[C@H]1CC[C@H]2[C@@H]3CCC4=CC(=O)CC[C@]4(C)[C@H]3CC[C@]12C", "targetOrSystem": "Oatp1b2 (Mus musculus, UniProt Q9JJL3)", "Fold of Change KO/WT": 1.29}
{"molecule": "C[C@H](CCC(=O)O)[C@H]1CC[C@H]2[C@@H]3[C@@H](O)C[C@@H]4C[C@H](O)CC[C@]4(C)[C@H]3C[C@H](O)[C@]12C [ursocholate]", "targetOrSystem": "Oatp1b2 (Mus musculus, UniProt Q9JJL3)", "Fold of Change KO/WT": 33.8}
{"molecule": "N[C@@H](CCC(=O)NCC(=O)O)C(=O)O", "targetOrSystem": "Oatp1b2 (Mus musculus, UniProt Q9JJL3)", "Fold of Change KO/WT": 1.23}
{"molecule": "Cc1ncc(CO)c(CN)c1O", "targetOrSystem": "Oatp1b2 (Mus musculus, UniProt Q9JJL3)", "Fold of Change KO/WT": 1.77}
{"molecule": "Cc1ccc(O[C@@H]2O[C@H](C(=O)O)[C@@H](O)[C@H](O)[C@H]2O)cc1 [p-cresol glucuronide]", "targetOrSystem": "Oatp1b2 (Mus musculus, UniProt Q9JJL3)", "Fold of Change KO/WT": 11.8}
{"molecule": "CCCCCCCCCCCCCCCCCCCC(=O)OC(CC(=O)[O-])C[N+](C)(C)C (stereo not shown)", "targetOrSystem": "Oatp1b2 (Mus musculus, UniProt Q9JJL3)", "Fold of Change KO/WT": 1.36}
{"molecule": "CCCCCCCC/C=C\\CCCCCCCC(=O)O[C@H](CC(=O)[O-])C[N+](C)(C)C", "targetOrSystem": "Oatp1b2 (Mus musculus, UniProt Q9JJL3)", "Fold of Change KO/WT": 1.56}
{"molecule": "Cc1ncc(CO)c(C(=O)O)c1O [pyridoxate]", "targetOrSystem": "Oatp1b2 (Mus musculus, UniProt Q9JJL3)", "Fold of Change KO/WT": 1.34}
{"molecule": "CCCCCCCCCCCCCCCCCC(=O)O[C@H](COC(=O)CCCCCCCCCCCCCCC)COP(=O)([O-])OCC[N+](C)(C)C", "targetOrSystem": "Oatp1b2 (Mus musculus, UniProt Q9JJL3)", "Fold of Change KO/WT": 1.14}
